Biological target: T1, Biotinylated ADDL preparations (bADDLs) (N-terminal biotin)
T1 construct: Oligomer, number of copies not fixed; also called biotinylated ADDL antigen; high molecular weight 10% bADDL
Test: BIACORE, bADDL as antigen; column Fab
pKd: −log10 of the molar value.
Assign 1 to entries whose pKd meets or exceeds 7; assign -1 to the rest.

Task item: Check if pKd >= 7 (inclusive). Item: 20C2-6A Fab fragment (clone 4P1-22) (Fab, V domains shown) VH: QVTLKESGPALVKPTQTLTLTCTFSGFSLSTSGMGVGWIRQPPGKALEWLAHIWWDDDKSYNPSLKSRLTISKDTSKNQVVLTMTNMDPVDTATYYCARRQLGLRSIDAMDYWGQGTTVTVSS VL: DVVMTQSPLSLPVTPGEPASISCRSSQSILHSNGNTYLEWYLQKPGQSPQLLIYKVSNRFSGVPDRFSGSGSGTDFTLKISRVEAEDVGVYYCFQSSRVPLTFGQGTKLEIKR
Reply: 1

Task item: Check if pKd >= 7 (inclusive). Item: 20C2-8A Fab fragment (clone SJ-p2-39) (Fab, V domains shown) VH: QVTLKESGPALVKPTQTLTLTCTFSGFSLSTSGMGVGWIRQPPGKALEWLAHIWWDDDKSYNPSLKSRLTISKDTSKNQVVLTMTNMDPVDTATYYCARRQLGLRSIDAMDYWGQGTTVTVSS VL: DVVMTQSPLSLPVTPGEPASISCRSSQSILHSNGNTYLEWYLQKPGQSPQLLIYKVSNRFSGVPDRFSGSGSGTDFTLKISRVEAEDVGVYYCLQTTRVPLTFGQGTKLEIKR
Reply: 1

Task item: Check if pKd >= 7 (inclusive). Item: 20C2-7A Fab fragment (clone SJ-p2-27) (Fab, V domains shown) VH: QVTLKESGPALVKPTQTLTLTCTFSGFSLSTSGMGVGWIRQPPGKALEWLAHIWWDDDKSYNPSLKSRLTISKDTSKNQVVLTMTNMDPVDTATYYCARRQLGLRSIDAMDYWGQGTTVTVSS VL: DVVMTQSPLSLPVTPGEPASISCRSSQSILHSNGNTYLEWYLQKPGQSPQLLIYKVSNRFSGVPDRFSGSGSGTDFTLKISRVEAEDVGVYYCLNSTTVPLTFGQGTKLEIKR
Reply: -1

Task item: Check if pKd >= 7 (inclusive). Item: 20C2-2A Fab fragment (clone SJ-p1-18) (Fab, V domains shown) VH: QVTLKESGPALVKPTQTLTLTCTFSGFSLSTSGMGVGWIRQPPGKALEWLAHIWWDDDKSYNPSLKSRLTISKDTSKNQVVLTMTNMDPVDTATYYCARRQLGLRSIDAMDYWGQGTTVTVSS VL: DVVMTQSPLSLPVTPGEPASISCRSSQSILHSNGNTYLEWYLQKPGQSPQLLIYKVSNRFSGVPDRFSGSGSGTDFTLKISRVEAEDVGVYYCFQATRVPLTFGQGTKLEIKR
Reply: 1
